Target: Phosphoglycerate kinase (Saccharomyces cerevisiae S288c)
Sequence (P00560 whole entry): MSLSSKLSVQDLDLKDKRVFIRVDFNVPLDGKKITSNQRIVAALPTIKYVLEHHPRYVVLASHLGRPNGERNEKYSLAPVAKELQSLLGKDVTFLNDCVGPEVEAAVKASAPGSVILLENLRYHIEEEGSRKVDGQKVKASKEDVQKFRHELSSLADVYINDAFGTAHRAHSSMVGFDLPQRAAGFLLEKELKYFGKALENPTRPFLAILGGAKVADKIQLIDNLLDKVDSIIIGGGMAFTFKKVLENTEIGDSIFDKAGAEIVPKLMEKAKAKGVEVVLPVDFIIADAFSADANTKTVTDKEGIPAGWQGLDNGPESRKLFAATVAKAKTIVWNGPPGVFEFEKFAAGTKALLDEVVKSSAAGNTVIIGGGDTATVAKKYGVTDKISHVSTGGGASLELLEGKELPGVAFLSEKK
Flag rule - Kd less than 80 µM flags met; the remaining entries get not met.

{"Smiles Data": "O=P(O)(O)CCCCCCP(=O)(O)O", "System Name": "Phosphoglycerate kinase (Saccharomyces cerevisiae S288c)", "Group Label": "not met"}
{"Smiles Data": "O=C(CCP(=O)(O)O)CP(=O)(O)O", "System Name": "Phosphoglycerate kinase (Saccharomyces cerevisiae S288c)", "Group Label": "met"}
{"Smiles Data": "O=P(O)(O)C(F)(F)COCC(F)(F)P(=O)(O)O", "System Name": "Phosphoglycerate kinase (Saccharomyces cerevisiae S288c)", "Group Label": "not met"}
{"Smiles Data": "O=C(CCCP(=O)(O)O)CP(=O)(O)O", "System Name": "Phosphoglycerate kinase (Saccharomyces cerevisiae S288c)", "Group Label": "met"}
{"Smiles Data": "O=P(O)(O)C(F)(F)CCCCC(F)(F)P(=O)(O)O", "System Name": "Phosphoglycerate kinase (Saccharomyces cerevisiae S288c)", "Group Label": "not met"}
{"Smiles Data": "O=C(CP(=O)(O)O)NCCP(=O)(O)O", "System Name": "Phosphoglycerate kinase (Saccharomyces cerevisiae S288c)", "Group Label": "not met"}
{"Smiles Data": "O=C(CCC(F)(F)P(=O)(O)O)C(F)(F)P(=O)(O)O", "System Name": "Phosphoglycerate kinase (Saccharomyces cerevisiae S288c)", "Group Label": "met"}
{"Smiles Data": "O=C(CCCP(=O)(O)O)C(F)(F)P(=O)(O)O", "System Name": "Phosphoglycerate kinase (Saccharomyces cerevisiae S288c)", "Group Label": "met"}
{"Smiles Data": "O=P(O)(O)C(F)(F)C(O)(O)C(F)(F)P(=O)(O)O", "System Name": "Phosphoglycerate kinase (Saccharomyces cerevisiae S288c)", "Group Label": "met"}
{"Smiles Data": "O=C(NCCP(=O)(O)O)C(F)(F)P(=O)(O)O", "System Name": "Phosphoglycerate kinase (Saccharomyces cerevisiae S288c)", "Group Label": "met"}
